Reported values of displacement for individual entries
Experimental Target: Bcl-2-like protein 10 (Homo sapiens) (UniProt Q9HD36)
Sequence (Q9HD36 whole entry, looked up): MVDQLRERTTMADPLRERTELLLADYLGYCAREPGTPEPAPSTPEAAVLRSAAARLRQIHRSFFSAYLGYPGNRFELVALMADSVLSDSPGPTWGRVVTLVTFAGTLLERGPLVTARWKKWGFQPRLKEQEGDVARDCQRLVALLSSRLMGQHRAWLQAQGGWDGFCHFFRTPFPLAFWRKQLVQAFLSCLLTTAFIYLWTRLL
Assay Notes: TR3 peptide-Bcl-B binding displacers, biochemical primary FP assay, phenotype converters (AID 1240);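 also: 0% = Bcl-B with tracer peptide and DMSO and 100% = tracer peptide lacking Bcl-B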
Measurement Conditions: GST-Bcl-B / FITC-TR3 peptide fluorescence polarization; stronger effect = higher value; compound at 3.75 mg/L
In all, about 50,000 compounds went through this assay and about 800 (1.6%) showed an effect of 50% or more. This is one part of a sample in which strong results are shown more often than they occur.
Numeric only. Scale: %

Solved cases (8 shown):
Molecule	displacement, %
Cn1c(CNc2ccc(O)cc2)nc2ccccc21	76.7
N#C/C(=N\Nc1ccccc1F)c1nc(-c2ccccc2)cs1	7.2
Cc1ccc(C(=O)N2CCC(C(N)=O)CC2)cc1[N+](=O)[O-]	-0.2
CCOC(=O)C1=CN(c2ccc(F)cc2)C=C(C(=O)OCC)C1c1cc(OC)c(OC)c(OC)c1	-2.3
N#C/C(=N\Nc1ccccc1)c1nc(-c2ccc(F)cc2)cs1	127
CCOC(=O)C1=C(C)N=c2s/c(=C\c3ccc(C(C)=O)cc3)c(=O)n2C1c1ccccc1 (centres undefined)	76.2
O=c1sc2ccccc2c(N2CCN(c3ccccc3)CC2)c1[N+](=O)[O-]	-11.1
O=C(CSc1ccc(Cl)cc1)NCCc1ccc(F)cc1	-8.3

Form entry - test system: Bcl-2-like protein 10 (Homo sapiens) (UniProt Q9HD36); read-out: displacement; molecule: Cc1cc(C)c(S(=O)(=O)NCC2CCCO2)c(C)c1 (centres undefined)
-8

Form entry - test system: Bcl-2-like protein 10 (Homo sapiens) (UniProt Q9HD36); read-out: displacement; molecule: COC(=O)C1=C(C)NC2=C(C(=O)c3ccccc32)C1c1ccc(-c2ccc([N+](=O)[O-])cc2Br)o1 (centres undefined)
46.9

Form entry - test system: Bcl-2-like protein 10 (Homo sapiens) (UniProt Q9HD36); read-out: displacement; molecule: Cn1c(CNc2ccccc2O)nc2ccccc21
0.7

Form entry - test system: Bcl-2-like protein 10 (Homo sapiens) (UniProt Q9HD36); read-out: displacement; molecule: N/C(=N\OC(=O)c1ccc(Cl)c([N+](=O)[O-])c1)c1ccccc1Cl
1.1

Form entry - test system: Bcl-2-like protein 10 (Homo sapiens) (UniProt Q9HD36); read-out: displacement; molecule: COc1ccc(-c2occ(C(=O)O)c2C(=O)O)cc1
0.2

Form entry - test system: Bcl-2-like protein 10 (Homo sapiens) (UniProt Q9HD36); read-out: displacement; molecule: COC(=O)c1ccc(C(=O)OC)c(NC(=O)COc2ccccc2Cl)c1
73.8

Form entry - test system: Bcl-2-like protein 10 (Homo sapiens) (UniProt Q9HD36); read-out: displacement; molecule: Cc1ccc(N(CC(=O)NCCc2ccccc2)S(C)(=O)=O)cc1Cl
19.2

Form entry - test system: Bcl-2-like protein 10 (Homo sapiens) (UniProt Q9HD36); read-out: displacement; molecule: CCOC(=O)CSc1nnc2c3ccccc3n(CC)c2n1
-10.4

Form entry - test system: Bcl-2-like protein 10 (Homo sapiens) (UniProt Q9HD36); read-out: displacement; molecule: O=C(/C=C\Nc1ccc2c(c1)OCO2)c1ccc(F)cc1
-2.4

Form entry - test system: Bcl-2-like protein 10 (Homo sapiens) (UniProt Q9HD36); read-out: displacement; molecule: Cc1ccc2c(Cl)c(C(=O)NCC3CCCO3)sc2c1 (centres undefined)
-20.5

Form entry - test system: Bcl-2-like protein 10 (Homo sapiens) (UniProt Q9HD36); read-out: displacement; molecule: O=C(O)c1cc(C(=O)O)cc(N2C(=O)c3ccc(Oc4cccc([N+](=O)[O-])c4)cc3C2=O)c1
3.2

Form entry - test system: Bcl-2-like protein 10 (Homo sapiens) (UniProt Q9HD36); read-out: displacement; molecule: Cc1ccc2c(c1)NC(c1ccccc1)C1=C(CC(C)(C)CC1=O)N2 (centres undefined)
-3.1

Form entry - test system: Bcl-2-like protein 10 (Homo sapiens) (UniProt Q9HD36); read-out: displacement; molecule: O=C(CSc1nc(-c2ccccc2)c(-c2ccccc2)o1)Nc1ccccc1
-4.2

Form entry - test system: Bcl-2-like protein 10 (Homo sapiens) (UniProt Q9HD36); read-out: displacement; molecule: Cc1nc([N+](=O)[O-])cn1-c1cccc(O)c1
3

Form entry - test system: Bcl-2-like protein 10 (Homo sapiens) (UniProt Q9HD36); read-out: displacement; molecule: Fc1ccc(-c2nnn(Cc3c(F)cccc3Cl)n2)cc1
-6.4

Form entry - test system: Bcl-2-like protein 10 (Homo sapiens) (UniProt Q9HD36); read-out: displacement; molecule: CCOC(=O)C1=C(C)N=c2s/c(=C/c3ccc(C)cc3)c(=O)n2C1c1ccccc1 (centres undefined)
2.5

Form entry - test system: Bcl-2-like protein 10 (Homo sapiens) (UniProt Q9HD36); read-out: displacement; molecule: CN1CCN(C(=O)CCN2C(=O)/C(=C/c3cccs3)SC2=S)CC1
0.2

Form entry - test system: Bcl-2-like protein 10 (Homo sapiens) (UniProt Q9HD36); read-out: displacement; molecule: Clc1ccc(-c2noc(-c3ccc(Cl)cc3Cl)n2)cc1
4.3
